The reported numbers originate from patent US20240182536A1.

Would you kindly list Activity, +100 nM BP, DF-1000002 for each of these binders?
Molecular target: T1, IL-18 binding protein (IL-18BP) (UniProt O95998 31-194)
T1 sequence (looked up): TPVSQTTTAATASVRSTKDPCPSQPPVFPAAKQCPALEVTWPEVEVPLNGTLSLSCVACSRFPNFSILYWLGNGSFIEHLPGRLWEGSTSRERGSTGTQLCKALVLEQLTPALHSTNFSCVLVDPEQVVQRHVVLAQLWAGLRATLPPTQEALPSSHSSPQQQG
Assay: cell-based or functional assay
Field format: numeric only.

Provide measured Activity, +100 nM BP, DF-1000002 value, entry: IL-18 variant G3P, E6R, K53T, D54Y, S55I, T63V, N91G, R104K (ligand) YFPKLRSKLSVIRNLNDQVLFIDQGNRPLFEDMTDSDMRDNAPRTIFIISMYTYIQPRGMAVVISVKSEKISTLSSENKIISFKEMNPPDGIKDTKSDIIFFQKSVPGHDNKMQFESSSYEGYFLASEKERDLFKLILKKEDELGDRSIMFTVQNED
0.15

Provide measured Activity, +100 nM BP, DF-1000002 value, entry: IL-18 variant G3L, E6N, I22M, T63V, N91T, R104P (ligand) YFLKLNSKLSVIRNLNDQVLFMDQGNRPLFEDMTDSDMRDNAPRTIFIISMYKDSQPRGMAVVISVKSEKISTLSSENKIISFKEMNPPDTIKDTKSDIIFFQPSVPGHDNKMQFESSSYEGYFLASEKERDLFKLILKKEDELGDRSIMFTVQNED
0.09

Provide measured Activity, +100 nM BP, DF-1000002 value, entry: IL-18 variant G3Q, E6N, K53T, D54A, N91K, R104P (ligand) YFQKLNSKLSVIRNLNDQVLFIDQGNRPLFEDMTDSDMRDNAPRTIFIISMYTASQPRGMAVTISVKSEKISTLSSENKIISFKEMNPPDKIKDTKSDIIFFQPSVPGHDNKMQFESSSYEGYFLASEKERDLFKLILKKEDELGDRSIMFTVQNED
0.07
